Test system: RD cells
ASSAY_PROCEDURE: Detection of cytotoxicity in RD cells (CellTiter-Glo)
Assay type: cell-based
REPORTED_CONDITIONS: 4 days, CellTiter-Glo, median toxic dose
Classes based on TD50: bottom bin (below 1 µM), middle bin (1 µM to below 4 µM), top bin (4 µM or more)

>  <MOLECULE>
NC(=O)NC/C=C/c1ccc2ncc3ccc(=O)n(-c4cccc(C(F)(F)F)c4)c3c2c1 [HTL-7-25]

>  <CATEGORY_LABEL>
top bin

$$$$
>  <MOLECULE>
Nc1ccc(-c2ccc3ncc4oc(=O)n(-c5cccc(C(F)(F)F)c5)c4c3c2)cn1 [HTL-4-32]

>  <CATEGORY_LABEL>
top bin

$$$$
>  <MOLECULE>
COc1ccc(-c2ccc3ncc4ccc(=O)n(-c5cccc(C(F)(F)F)c5)c4c3c2)cn1 [HTL-7-03]

>  <CATEGORY_LABEL>
bottom bin

$$$$
>  <MOLECULE>
O=c1ccc2cnc3ccc(C4=CCC5(CC4)OCCO5)cc3c2n1-c1cccc(C(F)(F)F)c1 [HTL-7-13]

>  <CATEGORY_LABEL>
top bin

$$$$
>  <MOLECULE>
COc1ccc(Nc2ccc3ncc4ccc(=O)n(-c5cccc(C(F)(F)F)c5)c4c3c2)cc1 [HTL-6-26]

>  <CATEGORY_LABEL>
top bin

$$$$
>  <MOLECULE>
CC(C)(C)OC(=O)Nc1ccc(-c2ccc3ncc4ccc(=O)n(-c5cccc(C(F)(F)F)c5)c4c3c2)cn1 [HTL-7-21]

>  <CATEGORY_LABEL>
bottom bin

$$$$
>  <MOLECULE>
O=c1ccc2cnc3ccc(-c4ccc(N5CCCC5)nc4)cc3c2n1-c1cccc(C(F)(F)F)c1 [HTL-7-20]

>  <CATEGORY_LABEL>
middle bin

$$$$
>  <MOLECULE>
CC(=O)/C=C/c1cnc2ccc(-c3ccc(C#N)cc3)cc2c1Nc1cccc(C(F)(F)F)c1 [HTL-3-15]

>  <CATEGORY_LABEL>
top bin

$$$$
>  <MOLECULE>
CC(=O)/C=C/c1cnc2ccc(-c3ccc(Cl)cc3)cc2c1Nc1cccc(C(F)(F)F)c1 [HTL-3-37]

>  <CATEGORY_LABEL>
middle bin

$$$$
>  <MOLECULE>
CC(=O)/C=C/c1cnc2ccc(-c3ccc(N)nc3)cc2c1Nc1cccc(C(F)(F)F)c1 [HTL-2-34]

>  <CATEGORY_LABEL>
top bin

$$$$
>  <MOLECULE>
CC(=O)/C=C/c1cnc2ccc(-c3cncc(C#N)c3)cc2c1Nc1cccc(C(F)(F)F)c1 [HTL-3-46]

>  <CATEGORY_LABEL>
middle bin

$$$$
>  <MOLECULE>
O=C(Nc1ccc(-c2ccc3ncc4oc(=O)n(-c5cccc(C(F)(F)F)c5)c4c3c2)cn1)OCc1ccccc1 [HTL-7-23]

>  <CATEGORY_LABEL>
top bin

$$$$
>  <MOLECULE>
NC(=O)/C=C/c1ccc2ncc3ccc(=O)n(-c4cccc(C(F)(F)F)c4)c3c2c1 [HTL-7-24]

>  <CATEGORY_LABEL>
bottom bin

$$$$
>  <MOLECULE>
CCOc1cccc(-c2ccc3ncc(/C=C/C(C)=O)c(Nc4cccc(C(F)(F)F)c4)c3c2)c1 [HTL-3-16]

>  <CATEGORY_LABEL>
bottom bin

$$$$

src = patent US20220220106A1
